Assay: yeast display, Sf9 membrane polyspecificity reagent, FACS + sequencing; frameworks hold sequencing errors
experimental.endpoint: polyreactivity (PSR sort gate)

Field: example entries. Status: answers known.
Enquiry: Look up polyreactivity (PSR sort gate) for this sequence: QVQLVESGGGLVQAGGSLRLSCAASGRIFFAYAMGWYRQAQGKEREFVAAISDNDGSTYYADSVKGRFTISRDNAKNTVYLQMNSLKPEDTAVYYCNADLGYVYDYCGQGTQVTVSS
Return: low polyreactivity

Enquiry: Look up polyreactivity (PSR sort gate) for this sequence: QVQLVESGGGLVQAGGSLRLSCAASGSTFPYNAMGWYRQAPGQERELVAAITRGGRTYYADSLKGRFTISRDNSKNTVYLQMISLKPEDTAVYYCAAYYSGYSKKFDYWGQGTQVTVSS
Return: high polyreactivity

Enquiry: Look up polyreactivity (PSR sort gate) for this sequence: QVQLVESGGGLVQAGGSLRLSCAASGRIFQIYAMGWYRQAPGKERELVAAISGSTSYADSVKGRFTISRDNAKNTVYLQMNCLKPEDSAVYDCSALSLLPNGEYWGQGSQVTVSS
Return: low polyreactivity

Enquiry: Look up polyreactivity (PSR sort gate) for this sequence: QVQLVESGGGLVQAGGSLRLSCAASGLIFRWYAMGWYRTAPGKERELVAAISRRGGTTNYADSVKGRFTISRDNAKNTVYLQMNSLKPDDTAVYYCAADYQSVGGAEYDYWGQGTQVTVSS
Return: high polyreactivity

Enquiry: Look up polyreactivity (PSR sort gate) for this sequence: QVQLVESGGGLVQAGGSLRLSCAASGSTFSYYAMGWYRQAPGKERELVAAISWSGGSTYYADSVKGRFTISRDNAKNTVYLQMNSLKPEDTAVYYCAIVTRKTYYVGNGDYWGQGTQVTVSS
Return: high polyreactivity

Enquiry: Look up polyreactivity (PSR sort gate) for this sequence: QVQLVESGGCLVQAAGRLRLSSAASGSTFYGYAMGWYRQAPGKERQLVAAITVRGGSTYYADSVKGRFTISRDNAKNTVYLQMYSLKPEDTAVYYCNAYIVSGFYVYDYWGQGTQVTVSS
Return: high polyreactivity

Further cases:
Enquiry: Look up polyreactivity (PSR sort gate) for this sequence: QVQLVESGGGLVQAGGSLPLSCAASGLIINYYVMGWYRQAPGKERELVAANTISGGRSYYADSVKVRFTISRDNAKNTVYLQMKCLNPEDTAVYYCARRFGPYRKGYQSYGIYDYWGQGTHVTVSS
Return: high polyreactivity

Enquiry: Look up polyreactivity (PSR sort gate) for this sequence: QVQLVESGGGLVKAGGSLRLSCVASGLMFGYCAMGWYRQPPGTERELVAVISWSGTSRYYADSVKGRFTISRDNAKNTVYLQMNSLKPEDTAVYYCIADTYGYYLWTGAVSAGDDYWVQGTQVTVSS
Return: low polyreactivity

Enquiry: Look up polyreactivity (PSR sort gate) for this sequence: QVQLVESGGGLVQAGGSLRLSCAASGSTFEANAKGWYRQAPGKERELVAVITWTGGSTYYADSVKGRFTISRDYAKNTVYLQMNSLKPEDTAVYYCAAKFHRFAWYSHYDYWGQGTQVTVSS
Return: low polyreactivity

Enquiry: Look up polyreactivity (PSR sort gate) for this sequence: QVQLVESGGGLVQAGGSLRLSCAASGRTFPGYAMGWYRQAPGKERELVAAISWSGTSTYYADSVKGRFTISRDNAKNTVYLQMNSLKPEDTAVYYCNKVYTYSAPYYYWGQGTQVTVSS
Return: high polyreactivity

Enquiry: Look up polyreactivity (PSR sort gate) for this sequence: QVQLVESGVGLVQAGGSLRLSCAASVYTFFIYAMRWYRHAHGQERELVARIRATGDSTYYADSVKGRFTISRDNAKNTVYLQMNSLKPDDTAVYYFNVRPVYSYREYGYWGQGTQVTVSS
Return: high polyreactivity
